Data origin: patent US20180265515A1

biological target: isolated recombinant JAK1 kinase domain (Homo sapiens, UniProt P23458); construct: The activity of the isolated recombinant JAK1 and JAK2 kinase domain was measured; test: JAK1 enzyme assay (Caliper LabChip, Ki); type: biochemical; settings: recombinant JAK1 kinase domain, 25 μM ATP
Sequence (P23458 875-1153 limits assumed): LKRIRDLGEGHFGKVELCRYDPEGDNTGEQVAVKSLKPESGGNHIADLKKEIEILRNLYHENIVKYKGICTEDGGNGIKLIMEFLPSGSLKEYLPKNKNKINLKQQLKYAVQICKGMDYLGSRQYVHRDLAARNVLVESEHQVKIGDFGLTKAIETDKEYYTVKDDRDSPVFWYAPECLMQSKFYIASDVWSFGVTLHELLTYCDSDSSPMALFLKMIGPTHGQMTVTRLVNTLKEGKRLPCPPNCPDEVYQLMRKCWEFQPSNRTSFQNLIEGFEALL
pKi: −log10 of the molar value.
Measurement name: pKi

{"Compound": "CSc1ccc(OC(F)F)c(-c2nn(CC(=O)N3CCC(CN4CCC[C@H]4C(=O)N(C)C)CC3)cc2NC(=O)c2cnn3cccnc23)c1", "Measurement name": "pKi", "Val": 9.46}
{"Compound": "CC(C)Sc1ccc(OC(F)F)c(-c2nn(CC(=O)N3CCC(C(=O)N4CCN(C)CC4)CC3)cc2NC(=O)c2cnn3cccnc23)c1", "Measurement name": "pKi", "Val": 9.30}
{"Compound": "CSc1ccc(OC(F)F)c(-c2nn(CC(=O)N3CCC(NCCC#N)CC3)cc2NC(=O)c2cnn3cccnc23)c1", "Measurement name": "pKi", "Val": 9.54}

1. CSc1ccc(OC(F)F)c(-c2nn(CC(=O)N3CCC(N(C)CC4(C)OCCO4)CC3)cc2NC(=O)c2cnn3cccnc23)c1
2. O=C(Nc1cn(CCN[C@H]2C[C@H](O)C2)nc1-c1cc(SC2COC2)ccc1OC(F)F)c1cnn2cccnc12
Query: Which entry shows the lesser value of pKi here, 1 or 2 ? Answer with the label corresponding to your selection.
Reply: 2
(2: 9.13, 1: 9.37)

a. CC(C)Sc1ccc(OC(F)F)c(-c2nn(CC(=O)N3CCN(CCCO)CC3)cc2NC(=O)c2cnn3cccnc23)c1
b. CC(C)Sc1ccc(OC(F)F)c(-c2nn(CC(=O)N3CC4CCCNC4C3)cc2NC(=O)c2cnn3cccnc23)c1 (stereo not shown)
Query: When the recorded pKi values are compared, which is smaller: that of a or that of b ? Write down the label attached to your selection.
Reply: b
(b: 9.04, a: 9.43)
